Hello, the source for this data is paper PMC10720262, in case you need it.

# TARGET_OF_ASSAY: recombinant full-length PfCSP (Plasmodium falciparum circumsporozoite protein, strain NF54) (Plasmodium falciparum NF54, UniProt P19597)
# Sequence (P19597 20-375): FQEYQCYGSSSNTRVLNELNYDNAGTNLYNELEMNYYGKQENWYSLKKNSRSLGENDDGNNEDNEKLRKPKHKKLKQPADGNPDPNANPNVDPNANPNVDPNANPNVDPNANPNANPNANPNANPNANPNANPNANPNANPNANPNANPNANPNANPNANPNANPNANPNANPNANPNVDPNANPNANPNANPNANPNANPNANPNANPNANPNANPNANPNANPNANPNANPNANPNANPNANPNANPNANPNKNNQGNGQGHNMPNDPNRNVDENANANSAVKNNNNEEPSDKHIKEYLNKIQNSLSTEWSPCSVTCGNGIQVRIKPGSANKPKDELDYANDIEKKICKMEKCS
ENDPOINT_LABEL: binding result

BINDER	ENDPOINT_LABEL	EXPERIMENTAL_RESULT
CL-464181 (antibody, V domains shown) VH: QVQLVESGGGAVQAGTSLRLSCAASGFSFSYNGMHWVRQGPGKGLEWVAIIWYDGGNKFYADSVKGRFTISRDNSKKMLYLQMNRLRAEDTAVYYCARAWNFADNKYSMDVWGQGTTVTVSA VL: DIQMTQSPSTLSASVGDRVTITCRASQSISCWLAWYQQKPGKAPQLLIYKASSLESGVPSRFSGSGSGTEFTLTISSLQPDDFATYYCQQYYIYWTFGQGTKVDIK	binding result	binds
CL-512508 (antibody, V domains shown) VH: QVQLVESGGGVVQPGTSLRLSCGASGFTFSSYGMHWVRQAPGKGLEWVAIIWYDGNNKYYADSVKGRFTISRDNSKNTLYLQMNSLRAEDTAVYYCAKVGQFSTSSWGAFDIWGQGTMVTVSS VL: EIVLTQSPGTLPLSPGERATLSCRASQSVSSSQLAWYQQKPGQAPRLLIYGASSRATAIPDRFSGSGSGTDFTLTISRLEPEDFAVYYCQQYSRLWTFGQGTKVEIK	binding result	binds
